FYI, the data here is from paper PMC5814546.

- TEST PROTOCOL: Phase I multiple ascending dose study of ALZ-801 capsule and tablet
- Format: in vivo, human
- CONDITION DETAILS: both, human, plasma, oral, 265 mg, t ½, Day 1, fed, ALZ-801 tablet 265 mg (Cohort D), mean ± SD
ASSAY ENDPOINT: half-life

Lookup: half-life for "CC(C)[C@H](N)C(=O)NCCCS(=O)(=O)O" ?
Found: 1.05 h

Lookup: Okay, and NCCCS(=O)(=O)O [tramiprosate, 3-amino-1-propanesulfonic acid] ?
Found: 8.94 h

###

- TEST PROTOCOL: Phase I multiple ascending dose study of ALZ-801 capsule and tablet
- Type: in vivo, human
- CONDITION DETAILS: both, human, plasma, oral, t ½, irrespective of dosing regimen and day
ASSAY ENDPOINT: half-life

Lookup: half-life for CC(C)[C@H](N)C(=O)NCCCS(=O)(=O)O [ALZ-801, 3-(L-valyl) amino-1-propanesulfonic acid] ?
Found: ~1 h
